Tested System: T1, integrin αvβ3 (UniProt P06756 31-1048; P05106 27-788)
T1 construct: Heterodimer immobilized on ProteoChip
T1 sequence (P06756 31-1048, chain 1 of 2): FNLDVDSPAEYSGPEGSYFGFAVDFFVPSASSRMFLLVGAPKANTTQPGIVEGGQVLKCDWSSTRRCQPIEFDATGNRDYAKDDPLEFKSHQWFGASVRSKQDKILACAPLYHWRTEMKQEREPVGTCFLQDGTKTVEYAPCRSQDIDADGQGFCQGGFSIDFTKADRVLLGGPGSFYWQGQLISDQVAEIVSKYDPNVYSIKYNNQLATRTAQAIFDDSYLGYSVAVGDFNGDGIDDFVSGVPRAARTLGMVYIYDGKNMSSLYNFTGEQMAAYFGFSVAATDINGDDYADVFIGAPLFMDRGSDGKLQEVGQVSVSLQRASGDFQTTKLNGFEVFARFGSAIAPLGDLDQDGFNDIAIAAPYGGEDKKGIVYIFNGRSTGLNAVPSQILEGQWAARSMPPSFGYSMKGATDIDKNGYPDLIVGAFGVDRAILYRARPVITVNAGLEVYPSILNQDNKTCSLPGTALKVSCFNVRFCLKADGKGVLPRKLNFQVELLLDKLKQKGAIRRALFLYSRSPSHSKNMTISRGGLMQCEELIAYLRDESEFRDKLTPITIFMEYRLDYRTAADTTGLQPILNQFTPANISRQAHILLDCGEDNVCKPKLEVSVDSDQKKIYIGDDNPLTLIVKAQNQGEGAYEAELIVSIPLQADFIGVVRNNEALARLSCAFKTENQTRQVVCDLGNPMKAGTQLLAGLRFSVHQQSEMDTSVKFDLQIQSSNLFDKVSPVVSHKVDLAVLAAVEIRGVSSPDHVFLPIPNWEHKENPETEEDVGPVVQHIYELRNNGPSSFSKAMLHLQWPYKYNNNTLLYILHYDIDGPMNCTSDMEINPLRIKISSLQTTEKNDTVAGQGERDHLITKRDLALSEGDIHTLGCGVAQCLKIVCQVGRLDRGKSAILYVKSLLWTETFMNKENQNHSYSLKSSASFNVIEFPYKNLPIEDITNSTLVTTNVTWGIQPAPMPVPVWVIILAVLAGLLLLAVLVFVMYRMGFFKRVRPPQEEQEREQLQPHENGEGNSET
T1 sequence (P05106 27-788, chain 2 of 2): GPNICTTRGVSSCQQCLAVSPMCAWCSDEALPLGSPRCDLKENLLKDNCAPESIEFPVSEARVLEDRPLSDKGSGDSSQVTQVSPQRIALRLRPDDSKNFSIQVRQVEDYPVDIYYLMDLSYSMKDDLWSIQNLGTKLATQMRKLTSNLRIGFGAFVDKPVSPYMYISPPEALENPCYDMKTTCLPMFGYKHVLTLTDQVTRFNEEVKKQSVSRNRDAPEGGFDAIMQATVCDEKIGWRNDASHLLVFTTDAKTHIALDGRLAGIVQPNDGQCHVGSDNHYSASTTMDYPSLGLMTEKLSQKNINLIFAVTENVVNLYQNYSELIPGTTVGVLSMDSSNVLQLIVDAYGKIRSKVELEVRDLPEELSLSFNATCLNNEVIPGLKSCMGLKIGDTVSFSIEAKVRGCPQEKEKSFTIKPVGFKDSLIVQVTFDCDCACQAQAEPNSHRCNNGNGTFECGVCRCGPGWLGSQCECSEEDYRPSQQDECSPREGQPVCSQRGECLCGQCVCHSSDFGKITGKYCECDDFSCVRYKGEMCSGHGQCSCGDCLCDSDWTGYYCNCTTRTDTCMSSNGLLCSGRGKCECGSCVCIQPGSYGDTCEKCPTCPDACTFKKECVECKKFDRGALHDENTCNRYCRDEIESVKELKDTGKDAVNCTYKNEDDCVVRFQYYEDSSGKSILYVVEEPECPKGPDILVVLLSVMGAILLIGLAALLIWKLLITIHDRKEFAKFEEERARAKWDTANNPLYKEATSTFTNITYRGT
Assay Comment: competitive inhibition of integrin αvβ3-vitronectin interaction on protein chip
No end group written: not given here.
Assign labels as follows, please: y for IC50 below 0.03 ng/mL; n for IC50 equal to or exceeding 0.03 ng/mL.

**Query** Item HSLVHK-NH2 (also called peptide number 8) [HSLVHK-NH2] : IC50 beneath 0.03 ng/mL, strictly?
**Result** n

**Query** Item HHLLHK-NH2 (also called HHLLHK peptide; peptide number 3) [HHLLHK-NH2] : IC50 beneath 0.03 ng/mL, strictly?
**Result** y

**Query** Item HGDVHK-NH2 (also called HGDVHK peptide; peptide number 10) [HGDVHK-NH2] : IC50 beneath 0.03 ng/mL, strictly?
**Result** n

**Query** Item HHLVHK-NH2 (also called peptide number 9) [HHLVHK-NH2] : IC50 beneath 0.03 ng/mL, strictly?
**Result** n

**Query** Item HGLVHK-NH2 (also called HGLVHK peptide; peptide number 7) [HGLVHK-NH2] : IC50 beneath 0.03 ng/mL, strictly?
**Result** y

**Query** Item HSDVHK-NH2 (also called HSDVHK peptide; peptide number 11) [HSDVHK-NH2] : IC50 beneath 0.03 ng/mL, strictly?
**Result** y

Measured values drawn from patent US20070249061A1 for this set.
